Test system: MRSA (ATCC 43300)
measurement.notes: microbe, parasite or virus in culture
Format: cell-based, methicillin-resistant S. aureus
experimental.parameters: Staphylococcus aureus; MRSA (ATCC 43300), MHB; read-out: MIC
quantity.name: MIC

For each listed entry, give its MIC.
1. CS(=O)(=O)c1ccc([C@@H](OC(=O)CCCCC(=O)O)[C@@H](CF)NC(=O)C(Cl)Cl)cc1 [Compound C3]
2. CS(=O)(=O)c1ccc([C@@H](OC(=O)CCCC(=O)O)[C@@H](CF)NC(=O)C(Cl)Cl)cc1 [Compound C2, florfenicol glutarate]
3. CS(=O)(=O)c1ccc([C@@H](O)[C@@H](CF)NC(=O)C(Cl)Cl)cc1 [Florfenicol]
4. CS(=O)(=O)c1ccc([C@@H](OC(=O)CCC(=O)O)[C@@H](CF)NC(=O)C(Cl)Cl)cc1 [Compound C1, florfenicol succinate]

1. > 100 µM
2. > 100 µM
3. 6.25 µM
4. > 100 µM
